tested on: U2OS; experiment: cell viability relative to DMSO; higher = less toxic; conditions: 72 h; 1 nM
For each of the compounds below, state its cell viability.
Field: numeric (%). Do not append units.

Ask | Entry under review: `CC1(C)O[C@H]2CC(=O)OC[C@]23[C@H]2CC[C@@]4(C)[C@H](c5ccoc5)OC(=O)[C@H]5O[C@]54[C@]2(C)C(=O)C[C@@H]13` . Reported cell viability?
Reply | 95.6

Ask | So what does the record say about cell viability for CN(C)CCOc1cc(-c2cn[nH]c2)ccc1NC(=O)C1COc2ccccc2O1 (stereo not given) ?
Reply | 99.8

Ask | State the recorded cell viability for this entry: `O=c1oc2c(O)c(O)cc3c(=O)oc4c(O)c(O)cc1c4c23`
Reply | 99.3

Ask | Query (compound): CC(C)NC[C@@H](O)c1ccc(O)c(O)c1 (racemic) ; field requested: cell viability
Reply | 96.8

Ask | Given the compound `COc1cc2c(NC3CCN(C)CC3)nc(N3CCCN(C)CC3)nc2cc1OCCCN(C)C` , what is its reported cell viability?
Reply | 103
